Reference source for all entries: the supplement of paper PMC10567573

B1: EPB41L3 (parent)
chain: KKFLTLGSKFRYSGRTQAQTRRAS

- Variants of: B1
- PROCEDURE_TEXT: protein stability index of a GFP-peptide fusion (GPS, HEK-293T) (PSI 1-6); higher = more stable;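 note: lentivirally expressed fusions sorted by FACS into six bins by GFP to DsRed ratio, PSI derived from sequencing read proportions per bin multiplied by bin number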
- STUDY_CONDITIONS: c terminus: a fixed tail appended
MEASURED_PROPERTY: protein stability index
Number, no unit, nothing else.

These recorded examples may help you get a feel for the data.
Find the recorded protein stability index belonging to KKFLMLGSKFRYSGRTQAQTRRAS and report it.
2.74

Find the recorded protein stability index belonging to KKFLTLGSKFRYSGRRQAQTRRAS and report it.
3.13

Find the recorded protein stability index belonging to KKFLTLGSKFRYSGRNQAQTRRAS and report it.
3.28

Find the recorded protein stability index belonging to KKFLPLGSKFRYSGRTQAQTRRAS and report it.
2.67

Find the recorded protein stability index belonging to KKFLTVGSKFRYSGRTQAQTRRAS and report it.
3.61

Alright, here's another variant for you.
Find the recorded protein stability index belonging to KKFLTLGSKFRYSGRTQAQTRRGS and report it.
3.69
